The entries below come with measured pIC50 values attached.
tgt: BRD4-BD2 (Homo sapiens (Human), UniProt O60885)
experimentSummary: BRD4 AlphaScreen assay, BRD4-BD2
experimentalContext: biotin-labeled tetra-acetylated histone H4 peptide, 75 min, room temperature, read-out: BRD4 BD-2 enzyme IC50
Description: BRD4-BD1 and BRD4-BD2 assays were conducted in white 384-well polystyrene plate in a final volume of 20 μL for BD1 and 40 μL for BD2. Inhibitors were first serially diluted in DMSO and added to the plate wells before the addition of other reaction components. The final concentration of DMSO in the assay was 1.25% (BD1) and 0.83% (BD2). […] After plate sealing, the plate was incubated in the dark at room temperature for 75 min. before reading on a PHERAstar FS plate reader (BMG Labtech). […]
pIC50: −log10 of the molar value. Structures can show the parent of a compound that is named as a salt.

The following compounds have reported results that may help.
>  <compound>
Cc1nnc2ccc3c(cc(-c4ccn(CCC(=O)N5CCC5)n4)n3Cc3cccc(Cl)c3)n12 [Example 104]

>  <tgt>
BRD4-BD2 (Homo sapiens (Human), UniProt O60885)

>  <pIC50>
≥ 7.00

$$$$
>  <compound>
Cc1cc2c(ccc3nnc(C)n32)n1Cc1cccc(CN2CCNCC2)c1 [Example 48]

>  <tgt>
BRD4-BD2 (Homo sapiens (Human), UniProt O60885)

>  <pIC50>
≥ 7.00

$$$$

Prompt: For Cc1nnc2ccc3c(cc(C(=O)NCC4CNC4)n3Cc3cccc(Cl)c3)n12 [Example 128, bis(trifluoroacetate) Salt] , what is its reported pIC50?
Response: 6.00 to 7.00

###

Recorded pIC50 values for a group of compounds are listed next.
tgt: BRD4-BD1 (Homo sapiens (Human))
experimentSummary: BRD4 AlphaScreen assay, BRD4-BD1
experimentalContext: biotin-labeled tetra-acetylated histone H4 peptide, 75 min, room temperature, read-out: BRD4 BD-1 enzyme IC50
pIC50: −log10 of the molar value. Counter-ions that a name gives are not always drawn.

Known pIC50 results, listed for orientation:
>  <compound>
Cc1cc2c(cc(NCC3CCN(C(=O)OC(C)(C)C)CC3)c3nnc(C)n32)n1Cc1ccccc1 [Example 242]

>  <value>
6.00 to 7.00

$$$$
>  <compound>
CC(=O)N1CC(CC#N)(n2ccc(-c3cc4c(ccc5nnc(C)n54)n3Cc3ccccc3)n2)C1 [Example 91]

>  <value>
≥ 7.00

$$$$
>  <compound>
Cc1cc2c(cc(Nc3ncccn3)c3nnc(C)n32)n1Cc1ccccc1 [Example 201, tris(trifluoroacetate) Salt]

>  <value>
≥ 7.00

$$$$

Prompt: Lookup: pIC50 / BRD4-BD1 (Homo sapiens (Human)) / Cc1cc2c(ccc3nnc(C)n32)n1C(CO)c1ccccc1 (racemic) [Example 29]
Response: 6.00 to 7.00

Prompt: And the next one, Cc1cc2c(cc(O)c3nnc(C)n32)n1Cc1ccccc1 [Example 204, Trifluoroacetate Salt] ?
Response: ≥ 7.00

Prompt: Consider next the compound CC(=O)Nc1cc2c(cc(C)n2Cc2ccccc2)n2c(C)nnc12 [Example 266] in the same way.
Response: ≥ 7.00

Prompt: Same thing, different compound: Cc1cc2c(cc(N[C@H]3C[C@H](O)C3)c3nnc(C)n32)n1Cc1ccccc1 [Example 247]
Response: ≥ 7.00

Prompt: And what about the compound Cc1cc2c(cc(NC3CCN(S(C)(=O)=O)CC3)c3nnc(C)n32)n1Cc1ccccc1 [Example 211] ?
Response: ≥ 7.00

Prompt: Cc1nnc2ccc3c(cc(C(=O)NCC4CNC4)n3Cc3ccccc3)n12 [Example 124, bis(trifluoroacetate) Salt] ?
Response: 5.00 to 6.00

Prompt: Here is the next compound: Cc1nnc2ccc3c(cc(-c4cccs4)n3Cc3ccccc3)n12 [Example 73]
Response: 6.00 to 7.00

Prompt: How about this compound: Cc1cc2c(ccc3nnc(C)n32)n1Cc1ccc(CN2CCCC2)cc1 [Example 51]
Response: 6.00 to 7.00

Prompt: Here is the next compound: Cc1cc2c(cc(NC(=O)C3CC3)c3nnc(C)n32)n1Cc1ccccc1 [Example 269]
Response: ≥ 7.00

Prompt: Can you handle CNCc1cccc(Cn2c(C)cc3c2ccc2nnc(C)n23)c1 [Example 41] next?
Response: ≥ 7.00

Prompt: Also Cc1cc2c(ccc3nnc(C)n32)n1Cc1ccncc1 [Example 12] ?
Response: 6.00 to 7.00

Prompt: How about Cc1nnc2ccc3c(cc(-c4cn(C)cn4)n3Cc3ccccc3)n12 [Example 70] ?
Response: ≥ 7.00

Prompt: Lookup Cc1nnc2ccc3c(cc(C(=O)NC(C)C)n3Cc3ccccc3)n12 [Example 84]
Response: 6.00 to 7.00

Prompt: Likewise for Cc1cc2c(ccc3nnc(C)n32)n1Cc1cccc(CN2CCCCC2)c1 [Example 46] ?
Response: ≥ 7.00

Prompt: Continue with Cc1nnc2ccc3c(cc(C(=O)NCC4CC4)n3Cc3cccc(Cl)c3)n12 [Example 114, Trifluoroacetate Salt]
Response: ≥ 7.00

Prompt: Also CCNC(=O)c1cc2c(ccc3nnc(C)n32)n1Cc1cccc(Cl)c1 [Example 113, Trifluoroacetate Salt] , if possible.
Response: ≥ 7.00

Prompt: Record: Cc1nnc2ccc3c(cc(-c4cnn(CC#N)c4)n3Cc3ccccc3)n12 [Example 64]
Response: ≥ 7.00

Prompt: One more compound: Cc1nnc2ccc3c(cc(-c4ccn(CCC#N)n4)n3Cc3ccccc3)n12 [Example 78]
Response: ≥ 7.00

###

The entries below are paired with their reported pIC50.
tgt: BRD4-BD2 (Homo sapiens (Human))
experimentSummary: BRD4 AlphaScreen assay, BRD4-BD2
experimentalContext: biotin-labeled tetra-acetylated histone H4 peptide, 75 min, room temperature, read-out: BRD4 BD-2 enzyme IC50
pIC50: −log10 of the molar value. Counter-ions that a name gives are not always drawn.

>  <compound>
Cc1cc2c(ccc3nnc(C)n32)n1Cc1ccccc1 [Example 2]

>  <tgt>
BRD4-BD2 (Homo sapiens (Human))

>  <pIC50>
≥ 7.00

$$$$
>  <compound>
Cc1nnc2ccc3c(cc(-c4ncco4)n3Cc3ccccc3)n12 [Example 143, Trifluoroacetate Salt]

>  <tgt>
BRD4-BD2 (Homo sapiens (Human))

>  <pIC50>
≥ 7.00

$$$$

Prompt: I'm curious: which pIC50 was measured for Cc1cc2c(cc(NC3CCN(C)CC3)c3nnc(C)n32)n1Cc1ccccn1 [Example 153] tested on BRD4-BD2 (Homo sapiens (Human))?
Response: ≥ 7.00

Prompt: Moving on to Cc1cc2c(ccc3nnc(C)n32)n1Cc1ccc(CN(C)C)cc1 [Example 53]
Response: 6.00 to 7.00

Prompt: Proceed to Cc1nnc2ccc3c(cc(C(=O)N[C@H](C)C(F)(F)F)n3Cc3ccccc3)n12 [Example 86]
Response: 6.00 to 7.00

###

tgt: BRD4-BD2 (Homo sapiens (Human), UniProt O60885)
experimentSummary: BRD4 AlphaScreen assay, BRD4-BD2
Assay type: binding
experimentalContext: biotin-labeled tetra-acetylated histone H4 peptide, 75 min, room temperature, read-out: BRD4 BD-2 enzyme IC50
pIC50: −log10 of the molar value.
The following compounds are listed with their measured pIC50 values.

>  <entrySmiles>
CNC(=O)c1cc2c(ccc3nnc(C)n32)n1Cc1cccc(F)c1

>  <tgt>
BRD4-BD2 (Homo sapiens (Human), UniProt O60885)

>  <pIC50>
≥ 7.00

$$$$
>  <entrySmiles>
CN[C@H]1CC[C@H](Nc2cc3c(cc(C)n3Cc3ccccc3)n3c(C)nnc23)CC1

>  <tgt>
BRD4-BD2 (Homo sapiens (Human), UniProt O60885)

>  <pIC50>
≥ 7.00

$$$$
>  <entrySmiles>
Cc1nnc2ccc3c(ccn3S(=O)(=O)c3ccccc3)n12

>  <tgt>
BRD4-BD2 (Homo sapiens (Human), UniProt O60885)

>  <pIC50>
6.00 to 7.00

$$$$
>  <entrySmiles>
Cc1cc2c(cc(NC(=O)OC(C)(C)C)c3nnc(C)n32)n1Cc1ccccc1

>  <tgt>
BRD4-BD2 (Homo sapiens (Human), UniProt O60885)

>  <pIC50>
≥ 7.00

$$$$

// next item, pIC50 requested
Prompt: // lookup pIC50 for Cc1cc2c(cc(NCCO)c3nnc(C)n32)n1Cc1ccccc1
Response: ≥ 7.00

###

Listed here: items and their measured IC50.
tgt: BRD4-BD1 (Homo sapiens (Human), UniProt O60885)
experimentSummary: BRD4 AlphaScreen assay, BRD4-BD1
experimentalContext: biotin-labeled tetra-acetylated histone H4 peptide, 75 min, room temperature, read-out: BRD4 BD-1 enzyme IC50
Where a name gives a salt, the structure may show the parent alone.

Here are 10 molecules together with their reported answers.
>  <molecule>
Cc1nnc2ccc3c(cc(-c4ccn(C5CN(C(=O)C6CC6)C5)n4)n3Cc3cccc(Cl)c3)n12 [Example 164, Trifluoroacetate Salt]

>  <tgt>
BRD4-BD1 (Homo sapiens (Human), UniProt O60885)

>  <IC50>
≤ 0.1 µM

$$$$
>  <molecule>
Cc1cc2c(cc(N[C@H]3CCN(C(=O)OC(C)(C)C)C3)c3nnc(C)n32)n1Cc1ccccc1

>  <tgt>
BRD4-BD1 (Homo sapiens (Human), UniProt O60885)

>  <IC50>
≤ 0.1 µM

$$$$
>  <molecule>
Cc1cc2c(ccc3nnc(C)n32)n1Cc1cccc(C(N)=O)c1 [Example 30, Trifluoroacetate Salt]

>  <tgt>
BRD4-BD1 (Homo sapiens (Human), UniProt O60885)

>  <IC50>
0.1 to 1 µM

$$$$
>  <molecule>
Cc1nnc2ccc3c(cc(C(=O)N[C@H]4C[C@H](C#N)C4)n3Cc3ccccc3)n12

>  <tgt>
BRD4-BD1 (Homo sapiens (Human), UniProt O60885)

>  <IC50>
≤ 0.1 µM

$$$$
>  <molecule>
CCCCC(c1ccccc1)n1c(C)cc2c1ccc1nnc(C)n12 (racemic)

>  <tgt>
BRD4-BD1 (Homo sapiens (Human), UniProt O60885)

>  <IC50>
0.1 to 1 µM

$$$$
>  <molecule>
CNC(=O)Nc1cc2c(cc(C)n2Cc2cc(Cl)cc(CN3CCCC3)c2)n2c(C)nnc12 [Example 142, bis(trifluoroacetate) Salt]

>  <tgt>
BRD4-BD1 (Homo sapiens (Human), UniProt O60885)

>  <IC50>
≤ 0.1 µM

$$$$
>  <molecule>
Cc1cc2c(ccc3nnc(C)n32)n1CC1CCCC1

>  <tgt>
BRD4-BD1 (Homo sapiens (Human), UniProt O60885)

>  <IC50>
0.1 to 1 µM

$$$$
>  <molecule>
Cc1cc2c(cc(NC(N)=O)c3nnc(C)n32)n1Cc1c(F)cccc1F

>  <tgt>
BRD4-BD1 (Homo sapiens (Human), UniProt O60885)

>  <IC50>
≤ 0.1 µM

$$$$
>  <molecule>
Cc1cc2c(ccc3nnc(C)n32)n1Cc1cccc(O)c1

>  <tgt>
BRD4-BD1 (Homo sapiens (Human), UniProt O60885)

>  <IC50>
≤ 0.1 µM

$$$$
>  <molecule>
Cc1cc2c(cc(Nc3ccn(C)n3)c3nnc(C)n32)n1Cc1ccccc1 [Example 202, tris(trifluoroacetate) Salt]

>  <tgt>
BRD4-BD1 (Homo sapiens (Human), UniProt O60885)

>  <IC50>
≤ 0.1 µM

$$$$

Prompt: Requested field: IC50. Item: CNC(=O)c1cc2c(ccc3nnc(C)n32)n1Cc1cc(Cl)cc(CN2CCC2)c1 [Example 131, bis(trifluoroacetate) Salt]
Response: ≤ 0.1 µM

Prompt: Same question, Cc1cc2c(cc(NC3CCN(C)CC3)c3nnc(C)n32)n1Cc1ccccn1 this time
Response: ≤ 0.1 µM

Prompt: And then Cc1nnc2ccc3c(cc(CCO)n3Cc3ccccc3)n12 , what is it?
Response: 1 to 10 µM

Prompt: Further, for CCCC(=O)Nc1cc2c(cc(C)n2Cc2ccccc2)n2c(C)nnc12 ?
Response: 0.1 to 1 µM

Prompt: Try Cc1nnc2ccc3c(cc(C(=O)NCC(C)C)n3Cc3cccc(Cl)c3)n12 [Example 129, Trifluoroacetate Salt] next.
Response: ≤ 0.1 µM

Prompt: How about this molecule: Cc1nnc2ccc3c(cc(-c4cn(CCC#N)cn4)n3Cc3ccccc3)n12
Response: ≤ 0.1 µM
